B1: tRNA (parent)
chain: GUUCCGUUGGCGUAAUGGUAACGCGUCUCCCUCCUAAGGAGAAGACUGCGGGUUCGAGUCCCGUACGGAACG

Variants of: B1
Assay: yeast fitness relative to wild type (ratio to wild type); higher = fitter; tRNA-Arg(CCU), competitive growth, 37 C, YPD
Variants at the floor of the assay were thinned out.
yeast fitness by entry:
Note: the reply should be a number with no unit written.

For GUUCCGUUGGCGUAAUGGUAACGCGUCUCCCUCCUAAGGAGCAGACUGCGGGUUCGAGUCCCGUACGGGACG , what is its reported yeast fitness? 0.97
